Where do the numbers come from? From patent US20070173499A1.

targetOrSystem: 5-HT2C receptor (Homo sapiens, UniProt P28335)
Construct: expressed in transfected cells; host or cells: CHO-K1 (or COS-7); alternatively choroid plexus tissue
Sequence (P28335 33-458): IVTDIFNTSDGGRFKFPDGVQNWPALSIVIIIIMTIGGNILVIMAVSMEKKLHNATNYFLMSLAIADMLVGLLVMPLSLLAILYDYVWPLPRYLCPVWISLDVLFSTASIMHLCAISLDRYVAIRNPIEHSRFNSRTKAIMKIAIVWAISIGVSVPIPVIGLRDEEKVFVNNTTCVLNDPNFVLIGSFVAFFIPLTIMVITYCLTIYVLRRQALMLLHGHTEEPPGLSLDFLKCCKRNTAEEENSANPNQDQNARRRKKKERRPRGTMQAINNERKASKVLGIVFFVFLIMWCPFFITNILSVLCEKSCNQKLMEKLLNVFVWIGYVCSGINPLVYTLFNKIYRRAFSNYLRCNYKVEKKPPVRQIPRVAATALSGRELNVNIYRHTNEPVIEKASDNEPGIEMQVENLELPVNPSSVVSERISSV
assayOverview: radioligand binding assay for 5-HT2C receptor ([3H]-mesulergine)
conditionParameters: [3H]-mesulergine; choroid plexus or recombinant 5-HT2C receptor in CHO-K1 cells; read-out: binding affinity to 5-HT2C serotonin receptor, Ki
pKi: −log10 of the molar value.
readoutLabel: pKi

query: Given the compound "CN(C)CCCOCc1cc2c(s1)-c1ccc3ccccc3c1Sc1ccccc1-2" , what is its reported pKi?
result: > 7.00

---

targetOrSystem: 5-HT2C receptor (Homo sapiens, UniProt P28335)
Construct: expressed in transfected cells; host or cells: CHO-K1 (or COS-7); alternatively choroid plexus tissue
assayOverview: radioligand binding assay for 5-HT2C receptor ([3H]-mesulergine)
readoutLabel: IC50

query: Quick check: IC50 on 5-HT2C receptor (Homo sapiens, UniProt P28335), item "CN(C)CCCOCc1cc2c(s1)-c1cc3ccccc3cc1Sc1ccccc1-2" ?
result: < 200 nM
